Each recorded value in this set is attributed to patent US9527869B2.

# measured-target: PI3Kα (Homo sapiens, UniProt P42336)
# Sequence (P42336 whole entry): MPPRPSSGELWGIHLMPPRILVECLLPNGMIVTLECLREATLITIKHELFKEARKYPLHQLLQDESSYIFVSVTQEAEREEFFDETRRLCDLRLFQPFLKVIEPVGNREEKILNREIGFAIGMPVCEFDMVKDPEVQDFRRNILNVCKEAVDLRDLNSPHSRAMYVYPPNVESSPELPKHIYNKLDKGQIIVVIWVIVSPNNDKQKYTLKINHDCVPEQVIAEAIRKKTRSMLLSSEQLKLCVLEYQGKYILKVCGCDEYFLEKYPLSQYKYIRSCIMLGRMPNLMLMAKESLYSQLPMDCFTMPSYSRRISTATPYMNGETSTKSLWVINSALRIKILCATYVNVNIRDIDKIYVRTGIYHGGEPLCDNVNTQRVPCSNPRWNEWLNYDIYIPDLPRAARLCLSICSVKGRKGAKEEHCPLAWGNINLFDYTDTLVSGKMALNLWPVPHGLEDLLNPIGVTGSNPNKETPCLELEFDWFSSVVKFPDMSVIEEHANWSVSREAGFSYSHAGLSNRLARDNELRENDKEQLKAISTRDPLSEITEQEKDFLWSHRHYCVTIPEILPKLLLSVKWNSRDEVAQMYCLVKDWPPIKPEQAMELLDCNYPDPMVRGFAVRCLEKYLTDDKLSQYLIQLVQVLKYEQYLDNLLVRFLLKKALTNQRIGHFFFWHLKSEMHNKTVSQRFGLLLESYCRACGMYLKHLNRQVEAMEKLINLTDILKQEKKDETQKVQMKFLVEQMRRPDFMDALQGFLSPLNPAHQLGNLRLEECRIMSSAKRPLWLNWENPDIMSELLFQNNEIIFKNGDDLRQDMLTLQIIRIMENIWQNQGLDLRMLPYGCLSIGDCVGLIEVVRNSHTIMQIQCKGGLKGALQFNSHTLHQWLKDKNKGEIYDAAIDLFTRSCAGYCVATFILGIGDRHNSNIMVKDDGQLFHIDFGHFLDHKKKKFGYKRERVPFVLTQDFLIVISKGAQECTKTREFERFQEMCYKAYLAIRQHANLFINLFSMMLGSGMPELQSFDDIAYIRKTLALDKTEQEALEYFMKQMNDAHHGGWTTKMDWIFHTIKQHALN
# Sequence (P27986 whole entry partner): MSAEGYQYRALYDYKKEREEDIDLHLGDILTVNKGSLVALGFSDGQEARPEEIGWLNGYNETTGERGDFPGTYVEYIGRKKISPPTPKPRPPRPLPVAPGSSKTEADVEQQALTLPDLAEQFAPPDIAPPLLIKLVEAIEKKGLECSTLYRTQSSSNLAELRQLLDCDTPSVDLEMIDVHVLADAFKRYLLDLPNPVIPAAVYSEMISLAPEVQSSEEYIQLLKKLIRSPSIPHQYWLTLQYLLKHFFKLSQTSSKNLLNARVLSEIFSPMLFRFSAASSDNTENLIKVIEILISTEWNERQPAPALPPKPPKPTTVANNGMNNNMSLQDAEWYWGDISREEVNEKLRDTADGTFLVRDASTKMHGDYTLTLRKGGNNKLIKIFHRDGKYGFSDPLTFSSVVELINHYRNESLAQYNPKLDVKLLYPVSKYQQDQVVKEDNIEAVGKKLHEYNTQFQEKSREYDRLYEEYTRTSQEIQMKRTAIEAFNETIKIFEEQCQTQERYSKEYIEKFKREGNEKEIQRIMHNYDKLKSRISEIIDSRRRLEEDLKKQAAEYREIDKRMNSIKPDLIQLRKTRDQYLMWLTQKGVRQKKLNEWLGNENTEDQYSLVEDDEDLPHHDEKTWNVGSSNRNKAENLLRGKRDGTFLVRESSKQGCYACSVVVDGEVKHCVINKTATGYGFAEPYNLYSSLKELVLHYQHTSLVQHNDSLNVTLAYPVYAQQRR
# test-protocol: In vitro determination of the PI3K enzyme inhibitory activity in the cell free assay (ADP-Glo Kinase Assay), PI3Kα
# measurement-context: ATP 50 μM, read-out: PI3K alpha inhibition
pIC50: −log10 of the molar value.
observable: pIC50

compound: Cc1c(N)ncnc1NC(C)c1cc2ccccn2c1-c1ccccn1 (stereo not shown) [Example 50]
measured-target: PI3Kα (Homo sapiens, UniProt P42336)
observable: pIC50
result: < 6.00
--
compound: CC(c1cc2ccccn2c1-c1ccc(OCCC2CCN(C)CC2)nn1)n1nc(-c2cc(O)cc(F)c2)c2c(N)ncnc21 (stereo not shown) [Example 140]
measured-target: PI3Kα (Homo sapiens, UniProt P42336)
observable: pIC50
result: < 6.00
--
compound: CC(c1cc2ccccn2c1-c1ccn(CCN2CCOCC2)c(=O)c1)n1nc(-c2cncc(O)c2)c2c(N)ncnc21 (stereo not shown) [Example 122]
measured-target: PI3Kα (Homo sapiens, UniProt P42336)
observable: pIC50
result: < 6.00

API: value(readout= pIC50, system= PI3Kα (Homo sapiens, UniProt P42336), query= CC(c1cc2cc(Cl)ccn2c1-c1ccccn1)n1nc(-c2cc(O)cc(F)c2)c2c(N)ncnc21 (stereo not shown) [Example 104] )
6.00 to 8.00
